Recorded percent remaining values for a group of molecules are listed next.
System: 1x PBS pH 7.4 stability, LC/MS/MS, 48 h RT
Assay: percent parent left in PBS – biochemical, 1x PBS, pH 7.4, ADME assay (AID 493010)
Conditions: stronger effect = lower value

molecule	percent remaining [%]
COc1ccc(C2CC(c3ccccc3)=NN2c2ccc(S(N)(=O)=O)cc2)cc1 (centres undefined)	27
CC(C)(C)c1ccc(C(=O)Nc2cc(Cl)c(Br)cc2C(=O)O)cc1	108
COc1cccc(C2=NN(c3ccc(S(N)(=O)=O)cc3)C(c3ccc(Br)cc3)C2)c1 (centres undefined)	10.6
CC(C)(C)c1ccc(C(=O)Nc2cc(Cl)c(Cl)cc2C(=O)O)cc1	124
